Data provenance is patent US4874856A.

- test-protocol: Mouse blood levels after oral administration (Table 2)
- Type: in vivo
- test-context: mouse blood, 20 mg/kg, read-out: AUC
// values below are reported AUC
measured-endpoint: AUC

# compound, test-result
rows = [
    ("CC1=C(C(=O)O)N2C(=O)[C@@H](NC(=O)[C@H](N)c3ccc(O)cc3)[C@H]2SC1 [Cefadroxil, reference compound]", "16000 ng·h/mL"),
    ("C=CC1=C(C(=O)O)N2C(=O)[C@@H](NC(=O)/C(=N\\OCC(=O)O)c3csc(N)n3)[C@H]2SC1", "25000 ng·h/mL"),
]

###

- test-protocol: Mouse blood levels after oral administration (Table 2)
- Format: in vivo
- test-context: mouse blood, 20 mg/kg, read-out: Cmax

# smiles-str, Cmax [ng/mL]
data = [
    ("C=CC1=C(C(=O)O)N2C(=O)[C@@H](NC(=O)/C(=N\\OCC(=O)O)c3csc(N)n3)[C@H]2SC1", 10000),
]
